- System: Escherichia coli BW25113
- test_protocol: plate-normalized OD600 growth (mean of duplicates) (OD600 (normalized)); higher = more growth (less inhibition)
- measurement_parameters: temperature: 37°C; 24 h; 10 µM
In all, about 1,600 compounds were measured (“plate-normalized OD600 growth (mean of duplicates)”: median about 0.31, lowest 2% from about 0.23 on). Shown is part of a subset that was picked to be rich in the lowest values.
Entries annotated with measured plate-normalized OD600 growth

molecule: CCC1CCC(NCc2cccc(OC)c2OC)CC1 (stereo unspecified)
plate-normalized OD600 growth: 0.603
--
molecule: CN(C)c1ccc(CN2CCc3c([nH]c4ccccc34)C2)cc1
plate-normalized OD600 growth: 0.622
--
molecule: Cc1cc(C)n(C(=O)c2ccccc2F)n1
plate-normalized OD600 growth: 0.635
--
molecule: Clc1ccccc1N1CCN(Cc2ccc(Br)o2)CC1
plate-normalized OD600 growth: 0.606
--
molecule: CCN(CC)CCN(C)C/C=C/c1ccccc1
plate-normalized OD600 growth: 0.608
--
molecule: CSc1nc2sc3c(c2c(=O)n1C)CCCC3
plate-normalized OD600 growth: 0.618
--
molecule: N#CCCN(CCN1CCCC1)S(=O)(=O)c1cccc2nsnc12
plate-normalized OD600 growth: 0.624
--
molecule: Cc1ccc2nc(/C(C#N)=C\c3ccco3)[nH]c2c1
plate-normalized OD600 growth: 0.599
--
molecule: COc1cccc(Nc2nc(-c3ccc(OC)c(F)c3)cs2)c1
plate-normalized OD600 growth: 0.609
--
molecule: CCOc1ccc(NC(=O)CC2Nc3ccccc3NC2=O)cc1 (stereo unspecified)
plate-normalized OD600 growth: 0.648
--
molecule: COc1ccc(N(C(=O)c2ccc(F)cc2)C2=CC3CCC(C2)N3C)cc1 (stereo unspecified)
plate-normalized OD600 growth: 0.619
--
molecule: CCCC(=O)NC(c1ccccc1)c1ccccc1
plate-normalized OD600 growth: 0.637
--
molecule: CCOC(=O)N1CCN(Cc2ccccc2Cl)CC1
plate-normalized OD600 growth: 0.621
--
molecule: CCCN(CCO)Cc1ccccc1F
plate-normalized OD600 growth: 0.589
--
molecule: O=C(CN1CCCCC1)NC12CC3CC(CC(C3)C1)C2
plate-normalized OD600 growth: 0.65
--
molecule: O=C(CC1Nc2ccccc2NC1=O)Nc1ccccc1 (stereo unspecified)
plate-normalized OD600 growth: 0.597
--
molecule: O=C(NCC1CCCO1)c1ccc2c(c1)OCO2 (stereo unspecified)
plate-normalized OD600 growth: 0.615
--
molecule: C=CCSc1nc(O)c(CC)c(=O)n1-c1ccccc1
plate-normalized OD600 growth: 0.62
--
molecule: Cc1ccc(C(C)NC(=O)c2ccccc2)c(C)c1 (stereo unspecified)
plate-normalized OD600 growth: 0.619
--
molecule: O=C(Nc1ccc(F)cc1F)c1cccc(Br)c1
plate-normalized OD600 growth: 0.605
--
molecule: Cc1cc(C)n(C(=O)c2ccc(Cl)cc2)n1
plate-normalized OD600 growth: 0.636
--
molecule: CC(=O)Nc1ccc(S(=O)(=O)N2CCN(C)CC2)cc1
plate-normalized OD600 growth: 0.646
--
molecule: CCCCOc1ccc(C2(C)CC(=O)NC2=O)cc1 (stereo unspecified)
plate-normalized OD600 growth: 0.634
--
molecule: O=c1[nH]c2nonc2nc1Nc1ccccc1
plate-normalized OD600 growth: 0.603
--
molecule: CC(=O)c1ccc(OCCOc2ccc(C(C)=O)cc2)cc1
plate-normalized OD600 growth: 0.607
--
molecule: Cc1ccc(N2C(=O)CC(N3CCN(c4ccc([N+](=O)[O-])cc4)CC3)C2=O)c(C)c1 (stereo unspecified)
plate-normalized OD600 growth: 0.612
